Data origin: patent US8217140B2

Molecular target: Cynomolgus monkey serum albumin (Macaca fascicularis, UniProt A2V9Z4)
Sequence (A2V9Z4 25-608): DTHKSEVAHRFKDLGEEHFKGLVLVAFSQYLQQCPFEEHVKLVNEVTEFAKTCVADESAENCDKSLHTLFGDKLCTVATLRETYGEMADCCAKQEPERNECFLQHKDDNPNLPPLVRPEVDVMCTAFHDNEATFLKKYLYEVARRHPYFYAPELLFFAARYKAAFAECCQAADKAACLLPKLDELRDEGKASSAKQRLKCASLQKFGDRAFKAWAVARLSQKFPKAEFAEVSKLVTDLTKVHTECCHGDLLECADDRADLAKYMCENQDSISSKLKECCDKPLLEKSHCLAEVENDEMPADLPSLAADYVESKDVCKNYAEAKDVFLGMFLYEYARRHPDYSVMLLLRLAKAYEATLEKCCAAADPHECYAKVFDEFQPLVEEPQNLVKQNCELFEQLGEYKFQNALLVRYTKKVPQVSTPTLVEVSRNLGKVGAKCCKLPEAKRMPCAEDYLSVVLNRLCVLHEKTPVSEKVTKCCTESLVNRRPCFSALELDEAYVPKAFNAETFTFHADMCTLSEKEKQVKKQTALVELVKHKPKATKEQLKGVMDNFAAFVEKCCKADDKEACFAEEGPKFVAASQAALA
Experiment: Surface plasmon resonance (BIAcore 3000) of MycHis tagged 2D3-Expedite fusions, Example 10
Format: binding
Details: Cynomolgus monkey serum albumin; dissociation rate
Measured koff (dissociation rate constant) by item
Write the value in s⁻¹ as a bare number.

Example entries begin here.
# molecule, koff (dissociation rate constant) [s⁻¹]
measured = [
    ("2D3-9GS-59H12-MycHis: SEQ ID NO: 161 (protein, Myc-His tag) EVQLVESGGSLVQPGGSLRLSCAASGFTFDDYAMSWVRQVPGKGLEWVSSINWSGTHTDYADSVKGRFTISRNNANNTLYLQMNSLKSEDTAVYYCAKNWRDAGTTWFEKSGSAGQGTQVTVSSGGGGSGGGSAAARSWDFDVFGGGTPVGGAAAEQKLISEEDLNGAAHHHHHH", 0.00441),
    ("2D3-9GS-56E4-MycHis: SEQ ID NO: 158 (protein, Myc-His tag) EVQLVESGGSLVQPGGSLRLSCAASGFTFDDYAMSWVRQVPGKGLEWVSSINWSGTHTDYADSVKGRFTISRNNANNTLYLQMNSLKSEDTAVYYCAKNWRDAGTTWFEKSGSAGQGTQVTVSSGGGGSGGGSAAARYWDYDVFGGGTPVGGAAAEQKLISEEDLNGAAHHHHHH", 0.00845),
    ("2D3-9GS-59F2-MycHis: SEQ ID NO: 159 (protein, Myc-His tag) EVQLVESGGSLVQPGGSLRLSCAASGFTFDDYAMSWVRQVPGKGLEWVSSINWSGTHTDYADSVKGRFTISRNNANNTLYLQMNSLKSEDTAVYYCAKNWRDAGTTWFEKSGSAGQGTQVTVSSGGGGSGGGSAAARYWDFDVFGGGTPVGGAAAEQKLISEEDLNGAAHHHHHH", 0.00504),
]

Request: Request the reported koff (dissociation rate constant) associated with 2D3-9GS-59C2-MycHis: SEQ ID NO: 160 (protein, Myc-His tag) EVQLVESGGSLVQPGGSLRLSCAASGFTFDDYAMSWVRQVPGKGLEWVSSINWSGTHTDYADSVKGRFTISRNNANNTLYLQMNSLKSEDTAVYYCAKNWRDAGTTWFEKSGSAGQGTQVTVSSGGGGSGGGSAAARDWDFDVFGGGTPVGGAAAEQKLISEEDLNGAAHHHHHH
Result: 0.00213
